B1: BRF1 (parent)
chain: CTACGSVLEDNIIVSEVQFVESSG

Variants of: B1
Assay: protein stability index of a GFP-peptide fusion (GPS, HEK-293T) (PSI 1-6); higher = more stable;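 note: lentivirally expressed fusions sorted by FACS into six bins by GFP to DsRed ratio, PSI derived from sequencing read proportions per bin multiplied by bin number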
Conditions: c terminus: a fixed tail appended
Reported values of protein stability index for individual entries
QUANTITY_NAME: protein stability index

construct_sequence="CTACGSVLEDNAIVSEVQFVESSG [I12A]" recorded_number=3.77
construct_sequence="CTACGSVQEDNIIVSEVQFVESSG [L8Q]" recorded_number=3.63
construct_sequence="CTACGSVLEDNIIVSEVQFVEPSG [S22P]" recorded_number=3.39
construct_sequence="CTACGSVLEDNIIVSEVEFVESSG [Q18E]" recorded_number=3.22
construct_sequence="CTACGSVLEDNIIVSEGQFVESSG [V17G]" recorded_number=4.45
construct_sequence="CTACGSDLEDNIIVSEVQFVESSG [V7D]" recorded_number=3.44
construct_sequence="CTACGSVLEDNIIVSEVQFVLSSG [E21L]" recorded_number=2.7
construct_sequence="CTACGSVLWDNIIVSEVQFVESSG [E9W]" recorded_number=1.83
construct_sequence="CTACGSVLEDNLIVSEVQFVESSG [I12L]" recorded_number=3.06
construct_sequence="CIACGSVLEDNIIVSEVQFVESSG [T2I]" recorded_number=2.52
construct_sequence="RTACGSVLEDNIIVSEVQFVESSG [C1R]" recorded_number=3.83
construct_sequence="WTACGSVLEDNIIVSEVQFVESSG [C1W]" recorded_number=2.51
construct_sequence="CTACGSVLEDNIIVSSVQFVESSG [E16S]" recorded_number=2.38
construct_sequence="CDACGSVLEDNIIVSEVQFVESSG [T2D]" recorded_number=3.42
construct_sequence="CTACGSVLEDNIIVSEVQFVESCG [S23C]" recorded_number=2.9
construct_sequence="CTACGSVLEDNIIVSEVQFVPSSG [E21P]" recorded_number=3.38
construct_sequence="ATACGSVLEDNIIVSEVQFVESSG [C1A]" recorded_number=3.88
construct_sequence="CTACGSVLEDNIIVSERQFVESSG [V17R]" recorded_number=3.83
construct_sequence="CTACGSVLEDNIIVSEVQFFESSG [V20F]" recorded_number=3.15
construct_sequence="CTACGSVLEDNIIVSEVQVVESSG [F19V]" recorded_number=3.11
construct_sequence="CTQCGSVLEDNIIVSEVQFVESSG [A3Q]" recorded_number=3.88
construct_sequence="CTACGSVLEGNIIVSEVQFVESSG [D10G]" recorded_number=1.84
construct_sequence="CTACGSVLEDNIKVSEVQFVESSG [I13K]" recorded_number=3.89
construct_sequence="CTACGSVLEDNIIVSEVTFVESSG [Q18T]" recorded_number=2.31
construct_sequence="CTACGSVLEDNIIVSTVQFVESSG [E16T]" recorded_number=2.2
construct_sequence="CTACGSVLEDNIIVSEVQFVECSG [S22C]" recorded_number=1.88
construct_sequence="CTACGSVLEDSIIVSEVQFVESSG [N11S]" recorded_number=2.42
construct_sequence="CTACGSVLEDNIIVSEVQFVESSD [G24D]" recorded_number=3.38
construct_sequence="CTACGSVLEDNIIVSEVQFVESSM [G24M]" recorded_number=3.13
construct_sequence="CTACGSVLEDNIIVSEVQFVESWG [S23W]" recorded_number=2.53
construct_sequence="CTACGSVLEDNIFVSEVQFVESSG [I13F]" recorded_number=3.08
construct_sequence="CTACGSVLEDNIIVSEVQFNESSG [V20N]" recorded_number=2.94
construct_sequence="CTACGSVLEDNIIVTEVQFVESSG [S15T]" recorded_number=3.02
construct_sequence="CTACGSVLEDNIIVSEVQFVQSSG [E21Q]" recorded_number=3.02
construct_sequence="CTACGSVLEDNDIVSEVQFVESSG [I12D]" recorded_number=3.08
construct_sequence="CTACGSVLEDNIIVSEVQFVESSR [G24R]" recorded_number=2.64
construct_sequence="CTAPGSVLEDNIIVSEVQFVESSG [C4P]" recorded_number=2.68
construct_sequence="CTACGSVLEDNIIVSEVQGVESSG [F19G]" recorded_number=4.32
construct_sequence="CGACGSVLEDNIIVSEVQFVESSG [T2G]" recorded_number=2.33
construct_sequence="CTACGSLLEDNIIVSEVQFVESSG [V7L]" recorded_number=2.51
construct_sequence="CTACGSVLEDNIIVSEVQFVESSC [G24C]" recorded_number=3.09
construct_sequence="CTACGMVLEDNIIVSEVQFVESSG [S6M]" recorded_number=1.82
construct_sequence="CTACGSVLVDNIIVSEVQFVESSG [E9V]" recorded_number=2.26
construct_sequence="CTACGEVLEDNIIVSEVQFVESSG [S6E]" recorded_number=2.2
construct_sequence="CTACGSVLEDNIIVSEVQFVESSW [G24W]" recorded_number=2.09
construct_sequence="CTACGSVLEDNIIVSESQFVESSG [V17S]" recorded_number=4.35
construct_sequence="CTACGSVLEDNIIVSEVQHVESSG [F19H]" recorded_number=4.36
construct_sequence="CTACGSVLEDNIIVSEVQFVWSSG [E21W]" recorded_number=2.05
construct_sequence="CTACGHVLEDNIIVSEVQFVESSG [S6H]" recorded_number=4.15
construct_sequence="CTACGSVLEDNIIVSEVQFVESSS [G24S]" recorded_number=3.08
construct_sequence="CTACGSVLEDNIIVSEDQFVESSG [V17D]" recorded_number=3.87
construct_sequence="CTACGSVLEDNIIVREVQFVESSG [S15R]" recorded_number=3.67
construct_sequence="CTACGSVLEDNIIVSEVQFPESSG [V20P]" recorded_number=3.48
construct_sequence="CTADGSVLEDNIIVSEVQFVESSG [C4D]" recorded_number=4.7
construct_sequence="CTACGSVLEDNIIVSEVQFRESSG [V20R]" recorded_number=3.18
construct_sequence="PTACGSVLEDNIIVSEVQFVESSG [C1P]" recorded_number=3.29
construct_sequence="CTACGSVLEDNIIVSEVQFVEGSG [S22G]" recorded_number=2.97
construct_sequence="CTALGSVLEDNIIVSEVQFVESSG [C4L]" recorded_number=3.15
construct_sequence="CTACGSVLEMNIIVSEVQFVESSG [D10M]" recorded_number=2.94
construct_sequence="CTACGSNLEDNIIVSEVQFVESSG [V7N]" recorded_number=2.94
construct_sequence="CTAEGSVLEDNIIVSEVQFVESSG [C4E]" recorded_number=4.21
construct_sequence="CTACGSVLEDNIIQSEVQFVESSG [V14Q]" recorded_number=4.25
construct_sequence="CTACGSVLMDNIIVSEVQFVESSG [E9M]" recorded_number=2.57
construct_sequence="CTACGSVLEDNIISSEVQFVESSG [V14S]" recorded_number=3.49
construct_sequence="CTLCGSVLEDNIIVSEVQFVESSG [A3L]" recorded_number=2.08
construct_sequence="CTACGSSLEDNIIVSEVQFVESSG [V7S]" recorded_number=2.85
construct_sequence="CTACGSVLEDNIIVSEVQFKESSG [V20K]" recorded_number=3.44
construct_sequence="ETACGSVLEDNIIVSEVQFVESSG [C1E]" recorded_number=4.86
construct_sequence="CTACGSVLEDNIIVSEVQFVEFSG [S22F]" recorded_number=2.32
construct_sequence="CTACGSVLEDMIIVSEVQFVESSG [N11M]" recorded_number=1.05
construct_sequence="CTACGSVLADNIIVSEVQFVESSG [E9A]" recorded_number=3.03
construct_sequence="CTACGSVLEDNIIVSEVQFVESYG [S23Y]" recorded_number=2.51
construct_sequence="CTACGSVLEDNIIVNEVQFVESSG [S15N]" recorded_number=3.79
construct_sequence="CTACGSVCEDNIIVSEVQFVESSG [L8C]" recorded_number=3.29
construct_sequence="CTACGSVHEDNIIVSEVQFVESSG [L8H]" recorded_number=3.32
construct_sequence="CTACGSWLEDNIIVSEVQFVESSG [V7W]" recorded_number=2.53
construct_sequence="CTACVSVLEDNIIVSEVQFVESSG [G5V]" recorded_number=1.33
construct_sequence="CTACGSVLEDNIIHSEVQFVESSG [V14H]" recorded_number=3.94
construct_sequence="CTACGSVNEDNIIVSEVQFVESSG [L8N]" recorded_number=4.42
construct_sequence="CTACGSVLEDNIIVSEVQFEESSG [V20E]" recorded_number=3.88
construct_sequence="CTACGSVLEDNIIVSEVQFVESSF [G24F]" recorded_number=2.03
construct_sequence="CTACGSVLEDNIIVSEVQFVESSI [G24I]" recorded_number=3.06
construct_sequence="CTACGSVLEDNIIVSEVQFAESSG [V20A]" recorded_number=3.65
